# Lookup of reported IC50 keyed by entry
biological target: purified 11β-HSD1 (recombinant, expressed in E. coli) (Homo sapiens, UniProt P28845); test: Inhibition of purified 11β-HSD1, Scintillation Proximity Assay; conditions: recombinant enzyme, 3H cortisone, NADPH, room temperature

Take a look at these entries with their results.
molecule	IC50
O=C1O[C@H](c2ccccc2)CN1CC12CC3CC(CC(C3)C1)C2	50 to 1000 nM
O=C1OC(c2ccc(O)cc2)CN1CC12CC3CC(CC(C3)C1)C2 (stereo not drawn)	50 to 1000 nM

Incoming: Enter reported IC50 observed with purified 11β-HSD1 (recombinant, expressed in E. coli) (Homo sapiens, UniProt P28845) for CC(C)CC1CCN(CC23CC4CC(CC(C4)C2)C3)C(=O)O1 (stereo not drawn)
Outgoing: 50 to 1000 nM

---

Reported IC50 is given for each of the following compounds.
biological target: purified 11β-HSD1 (recombinant, expressed in E. coli) (Homo sapiens, UniProt P28845); test: Inhibition of purified 11β-HSD1, Scintillation Proximity Assay; conditions: recombinant enzyme, 3H cortisone, NADPH, room temperature

compound	test.value
CC(C)C[C@H]1CN(CC23CC4CC(CC(C4)C2)C3)C(=O)O1	< 50 nM
CC(C)C[C@H]1CN(C2C3CC4CC2CC(O)(C4)C3)C(=O)O1 (single isomer, unassigned) [Example 13A]	50 to 1000 nM
O=C1O[C@@H](c2ccccc2)CN1C1C2CC3CC(C2)CC1C3 (some centres unmarked)	50 to 1000 nM

Incoming: Test system purified 11β-HSD1 (recombinant, expressed in E. coli) (Homo sapiens, UniProt P28845); read-out IC50; what value for CC(C)C[C@H]1CN(C2C3CC4CC2CC(O)(C4)C3)C(=O)O1 (single isomer, unassigned) [Example 13B] ?
Outgoing: > 1000 nM

Incoming: Can you check CC(C)C[C@H]1CN(C23CC4CC(CC(C4)C2)C3)C(=O)O1 next?
Outgoing: < 50 nM

Incoming: Cool, now O=C1O[C@@H](c2ccccc2)CN1CC1C2CC3CC(C2)CC1C3 (some centres unmarked)
Outgoing: 50 to 1000 nM

Incoming: Proceed to O=C1N[C@H](CO)CN1CC12CC3CC(CC(C3)C1)C2
Outgoing: 50 to 1000 nM

Incoming: Now consider CC(C)(C)[C@H]1CN(CC23CC4CC(CC(C4)C2)C3)C(=O)O1 and answer again.
Outgoing: < 50 nM

---

molecular target: 11β-HSD1 in whole cells (omental adipocytes) (Homo sapiens); experiment: Inhibition of 11β-HSD1 in whole cells (omental adipocytes), cortisone to cortisol conversion, SPA; details: 100 nM [3H] cortisone, 37 degrees C
Sequence (P28845 whole entry): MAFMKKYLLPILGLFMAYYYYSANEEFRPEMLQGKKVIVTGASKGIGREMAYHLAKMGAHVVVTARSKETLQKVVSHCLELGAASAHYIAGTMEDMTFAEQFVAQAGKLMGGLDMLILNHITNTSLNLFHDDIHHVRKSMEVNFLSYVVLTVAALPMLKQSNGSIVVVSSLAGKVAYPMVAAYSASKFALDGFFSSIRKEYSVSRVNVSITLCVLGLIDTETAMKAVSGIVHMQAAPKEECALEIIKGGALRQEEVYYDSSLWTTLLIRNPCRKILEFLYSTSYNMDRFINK
Collected IC50 values appear next to each entry.

Here's what some known entries look like.
compound	assayed.target	IC50
CC(C)C[C@H]1CN(CC23CC4CC(CC(C4)C2)C3)C(=O)O1	11β-HSD1 in whole cells (omental adipocytes) (Homo sapiens)	50 to 1000 nM
O=C1N[C@@H](c2ccccc2)CN1C12CC3CC(CC(C3)C1)C2	11β-HSD1 in whole cells (omental adipocytes) (Homo sapiens)	50 to 1000 nM
CC(C)(C)C1CCN(C2C3CC4CC(C3)CC2C4)C(=O)N1 (racemic)	11β-HSD1 in whole cells (omental adipocytes) (Homo sapiens)	< 50 nM
O=C1N[C@@H](C2CCCCC2)CN1C1C2CC3CC(C2)CC1C3 (stereo partly drawn)	11β-HSD1 in whole cells (omental adipocytes) (Homo sapiens)	< 50 nM
O=C1O[C@@H](C2CCCCC2)CN1CC12CC3CC(CC(C3)C1)C2	11β-HSD1 in whole cells (omental adipocytes) (Homo sapiens)	50 to 1000 nM
O=C1O[C@@H](c2ccccc2Cl)CN1CC12CC3CC(CC(C3)C1)C2	11β-HSD1 in whole cells (omental adipocytes) (Homo sapiens)	50 to 1000 nM
O=C1OC(c2cccc(-c3ccccc3)c2)CN1C1C2CC3CC(C2)CC1C3 (racemic)	11β-HSD1 in whole cells (omental adipocytes) (Homo sapiens)	50 to 1000 nM
O=C1O[C@@H](c2ccccc2)CN1CC12CC3CC(CC(C3)C1)C2	11β-HSD1 in whole cells (omental adipocytes) (Homo sapiens)	50 to 1000 nM

Below: the item to evaluate.
Incoming: Name the recorded IC50 for CN1C(=O)N(C2C3CC4CC(C3)CC2C4)C[C@@H]1C(C)(C)C (stereo partly drawn) .
Outgoing: < 50 nM

Hello, the source for this data is patent US8835426B2, in case you need it.
